test system: CCRIS mutagenicity, Ames/micronucleus/aberration tests; assay: CCRIS mutagenicity studies; conditions: Test System: AMES SALMONELLA TYPHIMURIUM; Strain/Indicator: TA98; Metabolic Activation: NONE; Method: PREINCUBATION
Calls of active or inactive are those of the source. The rule behind the calls is not given here.
ENDPOINT LABEL: mutagenic call

Answered cases to consult:
O=C(Oc1ccccc1)c1ccccc1O ... inactive; negative
N#CCc1ccc(Cl)cc1 ... inactive; negative
CN(C)c1ccc(C(=N)c2ccc(N(C)C)cc2)cc1 ... inactive; negative
FC(F)(F)C(Cl)Br (stereo not drawn) ... inactive; negative

Query block: Please indicate recorded mutagenic call of CCCCC(CC)COP(=O)(Oc1ccccc1)Oc1ccccc1 (stereo not drawn) measured with CCRIS mutagenicity, Ames/micronucleus/aberration tests.
Result block: inactive; negative

Query block: Please indicate recorded mutagenic call of "CCCCCCCC(=O)O" measured with CCRIS mutagenicity, Ames/micronucleus/aberration tests.
Result block: inactive; negative

Query block: Please indicate recorded mutagenic call of "CC(C)=CCC1=C(O)c2ccccc2C(=O)C1=O" measured with CCRIS mutagenicity, Ames/micronucleus/aberration tests.
Result block: inactive; negative

Query block: Please indicate recorded mutagenic call of "O=C(Nc1cccc2c(=O)c3c(ccc4c5cc(NC(=O)c6ccccc6)c6c(=O)c7ccccc7c(=O)c6c5[nH]c43)c(=O)c12)c1ccccc1" measured with CCRIS mutagenicity, Ames/micronucleus/aberration tests.
Result block: inactive; negative

Query block: Please indicate recorded mutagenic call of "Fc1c(F)c(Cl)c(F)c(Cl)c1F" measured with CCRIS mutagenicity, Ames/micronucleus/aberration tests.
Result block: inactive; negative

====

system: CCRIS mutagenicity, Ames/micronucleus/aberration tests; assay: CCRIS mutagenicity studies; conditions: Test System: AMES SALMONELLA TYPHIMURIUM; Strain/Indicator: TA104; Metabolic Activation: RAT LIVER S-9, PCB; Method: PREINCUBATION
Activity calls are given as the source filed them. The rule behind the calls is not given here.
Answer with one of the outcomes given here: t (active), f (inactive)

O=C(O)c1cccc(Cl)c1 ... f
O=Cc1ccc(Cl)cc1 ... f
O=C(O)c1c(Cl)cccc1Cl ... f
O=C(Cl)c1c(Cl)cccc1Cl ... t
O=C(Cl)c1ccccc1 ... t

Kindly review the next compound as well.
Query block: Called result for "O=C(O)c1ccccc1Cl"
Result block: f

====

test system: CCRIS mutagenicity, Ames/micronucleus/aberration tests; test: CCRIS mutagenicity studies; conditions: Test System: AMES SALMONELLA TYPHIMURIUM; Strain/Indicator: TA1535; Metabolic Activation: RAT, LIVER, S-9, AROCLOR 1254; Method: STANDARD PLATE
Activity calls are given as the source filed them. The rule behind the calls is not given here.
Answer with one of the outcomes given here: 1 (yes) = active, 0 (no) = inactive

Field: example entries. Status: answers known.
O=C(O)COc1ccc2ccccc2c1 ... 0 (no)
O=C1c2ccccc2C(=O)N1SC(Cl)(Cl)Cl ... 1 (yes)
C#C[C@]1(O)CC[C@H]2[C@@H]3CCC4=CC(=O)CC[C@@H]4[C@H]3CC[C@@]21C ... 0 (no)
O=Cc1ccccc1[N+](=O)[O-] ... 0 (no)
O=C(O)c1cc([N+](=O)[O-])cc2cccnc12 ... 0 (no)
C=C(C)C(=O)OCCOCCOC(=O)C(=C)C ... 0 (no)
CN1C(=O)CN=C(c2ccccc2)c2cc(Cl)ccc21 ... 0 (no)
C[n+]1cccc(C(=O)[O-])c1 ... 0 (no)

Query block: Called result for "C=C(C)C(=O)OCC"
Result block: 0 (no)

Query block: Called result for "CC(=O)O[C@H]1C[C@@H]2C(COC(=O)CC(C)C)=CO[C@@H](OC(=O)CC(C)C)[C@@H]2[C@@]12CO2"
Result block: 0 (no)

Query block: Called result for "Nc1ccc(-c2ccc(N)c(Cl)c2)cc1Cl"
Result block: 1 (yes)

Query block: Called result for "Fc1ccccc1-c1ccccc1"
Result block: 0 (no)

Query block: Called result for "COc1cc2c(c(OC)c1OC)-c1ccc(OC)c(=O)cc1[C@@H](NC(C)=O)CC2"
Result block: 0 (no)

Query block: Called result for "CCCCS(=O)(=O)n1ncc(Cl)c(Cl)c1=O"
Result block: 1 (yes)

Query block: Called result for "O=S(=O)(NO)c1cccc2cccnc12"
Result block: 0 (no)

Query block: Called result for "NC(=O)c1ccc(N)cc1"
Result block: 0 (no)

Query block: Called result for "O=C(O)CN(CCN(CC(=O)O)CC(=O)O)CC(=O)O"
Result block: 0 (no)

Query block: Called result for "CCN(CC)c1ccc(N=Nc2ccc([N+](=O)[O-])cc2)cc1"
Result block: 0 (no)

Query block: Called result for "CNC(=O)Oc1ccc(-c2ccccc2)cc1"
Result block: 1 (yes)

====

tested on: CCRIS mutagenicity, Ames/micronucleus/aberration tests; experiment: CCRIS mutagenicity studies; settings: Test System: AMES SALMONELLA TYPHIMURIUM; Strain/Indicator: TA100; Metabolic Activation: NONE; Method: PREINCUBATION
Activity calls are given as the source filed them. How the calls were made is not given here.
Answer with one of the outcomes given here: Y = active, N = inactive

Field: example entries. Status: answers known.
CCCC=O ... N
NCCc1c[nH]c2ccc(O)cc12 ... N
Cc1cccc(C)c1[N+](=O)[O-] ... N
C=CC=O ... Y

Query block: Called result for "CCCCCCc1ccc(-c2ccc(C#N)cc2)cc1"
Result block: N

Query block: Called result for "O=C1c2ccccc2C(=O)c2c(O)cc(O)cc21"
Result block: N

Query block: Called result for CCCCC(CC)COC(=O)CCCCC(=O)O (stereo not drawn)
Result block: N

Query block: Called result for "CCC(C)(C)C"
Result block: N

====

system: CCRIS mutagenicity, Ames/micronucleus/aberration tests; assay: CCRIS mutagenicity studies; conditions: Test System: AMES SALMONELLA TYPHIMURIUM; Strain/Indicator: TA1537; Metabolic Activation: RAT, LIVER, S-9, AROCLOR 1254; Method: STANDARD PLATE
The source made the active and inactive calls. The rule behind the calls is not given here.
Answer with one of the outcomes given here: T for active, F for inactive

Field: example entries. Status: answers known.
C1=Cc2cc3c4ccccc4ccc3c3cccc1c23 ... T
Nc1ccc([N+](=O)[O-])c(O)c1 ... F
CCOC(=O)C1OC1c1ccccc1 (stereo not given) ... F

Query block: Called result for "CC[C@H]1OC(=O)[C@H](C)[C@@H](O[C@H]2C[C@@](C)(OC)[C@@H](O)[C@H](C)O2)[C@H](C)[C@@H](O[C@@H]2O[C@H](C)C[C@H](N(C)C)[C@H]2O)[C@](C)(O)C[C@@H](C)CN(C)[C@H](C)[C@@H](O)[C@]1(C)O"
Result block: F

Query block: Called result for "CCOCOCC"
Result block: F

Query block: Called result for "CCCCCCCCCCCC(=O)OCCS(=O)(=O)O"
Result block: F

Query block: Called result for "CC(=O)O[C@H]1C[C@@H]2C(COC(=O)CC(C)C)=CO[C@@H](OC(=O)CC(C)C)[C@@H]2[C@@]12CO2"
Result block: F

Query block: Called result for "C#C[C@]1(O)CC[C@H]2[C@@H]3CCC4=CC(=O)CC[C@@H]4[C@H]3CC[C@@]21C"
Result block: F

Query block: Called result for "CCCCCCCCCCCCOC(=O)CCSCCC(=O)OCCCCCCCCCCCC"
Result block: F

Query block: Called result for "Nc1c(Br)cc([N+](=O)[O-])cc1[N+](=O)[O-]"
Result block: T

Query block: Called result for "ON=C1CCCCC1"
Result block: F

====

system: CCRIS mutagenicity, Ames/micronucleus/aberration tests; assay: CCRIS mutagenicity studies; conditions: Test System: MOUSE LYMPHOMA; Strain/Indicator: L5178Y (TK+/TK-); Metabolic Activation: RAT, LIVER, S-9, AROCLOR 1254; Method: SUSPENSION/PLATE
Calls of active or inactive are those of the source. No rule for the calls is given here.
Answer with one of the outcomes given here: Yes = active, No = inactive

CCCCC(CC)COC(=O)C(C#N)=C(c1ccccc1)c1ccccc1 (stereo unspecified) ... No
CN(C)c1ccc(N=Nc2ccccc2)cc1 ... Yes
CNC(=O)ON=CC(C)(C)SC ... Yes
CC1(C)S[C@@H]2[C@H](NC(=O)[C@H](N)c3ccccc3)C(=O)N2[C@H]1C(=O)O ... No

Kindly review the next molecule as well.
Query block: Called result for "COS(=O)(=O)C(F)(F)F"
Result block: Yes

====

system: CCRIS mutagenicity, Ames/micronucleus/aberration tests; test: CCRIS mutagenicity studies; details: Test System: AMES SALMONELLA TYPHIMURIUM; Strain/Indicator: TA100; Metabolic Activation: NONE; Method: STANDARD PLATE
Active and inactive are the calls of the source. How the calls were made is not given here.
Answer with one of the outcomes given here: active, inactive

Query block: Called result for "Cl/C=C(/Cl)c1c(Cl)c(Cl)c(Cl)c(Cl)c1Cl"
Result block: inactive

Query block: Called result for "CN(C)C(=O)c1nc(CNC(=O)CN)n(-c2ccc(Cl)cc2C(=O)c2ccccc2Cl)n1"
Result block: inactive

Query block: Called result for "CC(=O)c1ccco1"
Result block: inactive

Query block: Called result for "CCc1ccc(NC(=O)c2csc([N+](=O)[O-])c2)cc1"
Result block: active
